PROCEDURE_DETAILS: qHTS assay to test for compound auto fluorescence at 535 nm (green) in HEK293 cell free culture (AID 720682); further: on the % scale 0 is the no-effect control and ±100 the full control effect
TEST_PARAMETERS: cell-free medium, green autofluorescence 485/535 nm, stronger effect = higher value; series mostly up to 91.3 µM
The source made the active and inactive calls. The call rests on the fitted dose curve; in most records, active means well fitted curve in the direction sought with a large enough effect in the repeat runs; inconclusive means weak or mixed curves; inactive means flat fitted curve, though single readings scatter.
REPORTED_PROPERTY: activity change

Worked cases, activity change given:
* CCCCCCOC(=O)CC(CC(=O)OCCCCCC)(OC(=O)CCC)C(=O)OCCCCCC | inactive
* Oc1cc(O)c2c(c1)O[C@H](c1ccc(O)c(O)c1)[C@H](O)C2 | inactive
* CCCOCC(C)OCC(C)O (stereo unspecified) | inactive
* O=C(O)CCNC(=O)c1ccc(N=Nc2ccc(O)c(C(=O)O)c2)cc1 | inactive
* NC(=S)Nc1cccc2ccccc12 | 0.0539% [at 3.72 µM] (inactive)
* Nc1[nH]c(=O)ncc1F | 0.004% [at 18.6 µM] (inactive)
* Cc1ccccc1C(=O)O | inactive
* COc1ccc(NC(C)=O)cc1 | inactive

Working through the 6 compounds below one at a time, give activity change for each.
1. O=C(O)/C=C/c1ccc(Cn2ccnc2)cc1
2. CC(C)CCCC(C)CCCC(C)CCCCC(C)CCCC(C)CCCC(C)C (stereo unspecified)
3. CCN1CCN(c2cc3c(cc2F)c(=O)c(C(=O)O)cn3C2CC2)CC1
4. CN(C)C(=O)Nc1ccccc1
5. C=C(C)C(=O)NCCC[N+](C)(C)C
6. C=CC(=O)OCCCCCC

Solution:
0.0066% [at 18.6 µM] (inactive)
inactive
inactive
inactive
inactive
inactive

Give one value of activity change per listed compound.
1. COC(=O)C1=C(C)NC(C)=C(C(=O)OCC(C)=O)C1c1ccccc1[N+](=O)[O-] (stereo unspecified)
2. CCCCCCC(CCCCCCCCCCC(=O)OCC(COC(C)=O)OC(C)=O)OC(C)=O (stereo unspecified)

Solution:
["inactive", "inactive"]

----------
PROCEDURE_DETAILS: A CellTox Green Cytotoxicity Assay to monitor cytotoxicity in HepG2 cells - 0 hour (AID 1224882); further: on the % scale 0 is the no-effect control and ±100 the full control effect; nearly all actives have a fitted effect of over 35% in size
TEST_PARAMETERS: CellTox Green fluorescence; series mostly up to 76.8 µM
The source made the active and inactive calls. Calls follow the shape of the dose curve; as a rule, active = well fitted activation curve with a large enough effect in the repeat runs; inconclusive = weak or mixed curves; inactive = flat fitted curve, though single readings scatter.
REPORTED_PROPERTY: cytotoxicity

See these solved cases before continuing.
• CC(C)(O)Cc1ccccc1 = inactive
• CCCCCCC(=O)OCC = inactive
• NCC[C@H](O)C(=O)N[C@@H]1C[C@H](N)[C@@H](O[C@H]2O[C@H](CN)[C@@H](O)[C@H](O)[C@H]2O)[C@H](O)[C@H]1O[C@H]1O[C@H](CO)[C@@H](O)[C@H](N)[C@H]1O = -4.16% [at 0.29 µM] (inactive)
• CC(C)(C)OC(=O)N1C[C@@H](F)C[C@H]1C(=O)O = inactive

Turning now to a further molecule:
Lab note: C(=C(c1ccccc1)c1ccccc1)c1ccccc1 gave cytotoxicity of inactive

----------
PROCEDURE_DETAILS: qHTS assay to identify small molecule HDAC inhibitors - cell viability counter screen (AID 1259365); further: on the % scale 0 is the no-effect control and ±100 the full control effect; nearly all actives have a fitted effect of over 50% in size
TEST_PARAMETERS: HCT-116 viability, CellTiter-Glo ATP luminescence, 2 h; series mostly up to 92.4 µM
Active and inactive are the calls of the source. The call rests on the fitted dose curve; in most records, active means well fitted cell-killing curve with a large enough effect in the repeat runs; inconclusive means weak or mixed curves, or effect the other way; inactive means flat fitted curve, though single readings scatter.
REPORTED_PROPERTY: activity change, negative = cytotoxicity

* COc1cc(C(=O)N2CCOCC2)cc(OC)c1OC | inactive
* C[N+](C)(C)CC[N+]1(C)Cc2c(Cl)c(Cl)c(Cl)c(Cl)c2C1 | inactive
* CCn1cc(C(=O)O)c(=O)c2cc(F)c(N3CCN(C)CC3)cc21 | 2.46% [at 19 µM] (inactive)
* NC1CCN(c2cccc(Cl)n2)CC1 | inactive

Item: CC(C)[C@H](N)C(=O)OCCOCn1cnc2c(=O)[nH]c(N)nc21 | activity change, negative = cytotoxicity: inactive

This collection of values is drawn from PubChem BioAssay (Tox21).
